pKi: −log10 of the molar value.
Please find below pKi measurements for Human σ1 receptor (Homo sapiens, UniProt Q99720), combined from several publications.

# annotated cases, reported pKi shown
compound	pKi
COc1cccc(-c2cc3nccc(C4CCCN(Cc5ccccc5)C4)n3n2)n1 (stereo not drawn)	< 6.00
CCC[C@@H](c1nc2cc(F)c(Br)cc2c(=O)n1CC)N1CCN(C)C[C@H](C)C1	< 6.00
CCc1nn2c(C3CCCN(Cc4ccc(Cl)cc4)C3)ccnc2c1CNCC1CCOCC1 (stereo not drawn)	> 6.30
CC(C)N1CC(C2CCN(Cc3ccccc3)CC2)OC2(CC2)C1=O (stereo not drawn)	≤ 6.30
Cc1nn2c([C@H]3CCCN(Cc4ccc(Cl)cc4)C3)ccnc2c1CNC[C@@H]1CCOC1	> 6.30

Lookup: Reported pKi for CCCC(c1nc2ccc(C#N)cc2c(=O)n1CC)N1CCCN(C)CC1 (stereo not drawn) : what is it?
Found: < 6.00

Lookup: Repeat for the following compound: Cc1nn2c(C3CCCN(Cc4ccc(Cl)cc4)C3)ccnc2c1CNCC1CCN(C(N)=O)CC1 (stereo not drawn)
Found: 6.00 to 6.30

Lookup: Repeat for the following compound: O=C(c1ccccc1)N1CC2(CC2)OC2(CN(CCc3ccccc3)C2)C1
Found: ≤ 6.30

Lookup: Repeat for the following compound: COc1ncccc1-c1cc2nccc(C3CCCN(Cc4cccc(Cl)c4)C3)n2n1 (stereo not drawn)
Found: < 6.00

Lookup: Repeat for the following compound: CCC[C@@H](c1nc2cc(F)c(Br)cc2c(=O)n1CC)N1CCNC[C@H](C)C1
Found: < 6.00

---

Please find below pKi measurements for Human σ1 receptor (Homo sapiens, UniProt Q99720), combined from several publications.
pKi: −log10 of the molar value.

molecule	pKi
CCC[C@H](c1nc2ccncc2c(=O)n1CC)N1CCNC[C@H](C)C1	< 6.00
Cc1nn2c([C@@H]3CCCN(Cc4ccc(Cl)cc4)C3)ccnc2c1CN[C@H](C)c1ccccc1	> 6.30
CCN1CC(C2CN(CCc3ccccc3)C2)OC2(CC2)C1=O (centres unmarked)	> 6.30
CCC[C@H](c1nc2ccc(F)cc2c(=O)n1CC)N1CCCN(C)CC1	> 6.30

Lookup: Reported pKi for CCC[C@H](c1nc2ccc(Br)cc2c(=O)n1CC)N1CCNC[C@@H](O)C1 : what is it?
Found: < 6.00
